Target: human recombinant CK2 holoenzyme (Homo sapiens)
Sequence (P68400 whole entry): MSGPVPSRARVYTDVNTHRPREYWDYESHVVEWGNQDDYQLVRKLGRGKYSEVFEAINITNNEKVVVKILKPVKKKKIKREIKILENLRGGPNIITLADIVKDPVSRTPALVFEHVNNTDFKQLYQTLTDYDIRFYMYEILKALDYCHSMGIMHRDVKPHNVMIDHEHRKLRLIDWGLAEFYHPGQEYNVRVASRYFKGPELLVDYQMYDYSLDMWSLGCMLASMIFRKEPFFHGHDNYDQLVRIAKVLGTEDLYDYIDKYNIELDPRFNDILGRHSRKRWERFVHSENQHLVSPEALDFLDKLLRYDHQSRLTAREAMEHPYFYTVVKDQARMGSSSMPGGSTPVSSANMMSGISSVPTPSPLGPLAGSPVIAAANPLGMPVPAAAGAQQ
Sequence (P67870 whole entry partner): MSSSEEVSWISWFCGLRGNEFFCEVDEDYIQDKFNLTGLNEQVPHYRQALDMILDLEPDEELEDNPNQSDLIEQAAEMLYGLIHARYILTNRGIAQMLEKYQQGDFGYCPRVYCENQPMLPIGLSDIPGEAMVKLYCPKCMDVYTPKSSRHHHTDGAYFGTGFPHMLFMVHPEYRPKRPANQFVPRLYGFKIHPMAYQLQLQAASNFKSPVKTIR
Assay: CE-based CK2 activity assay (substrate peptide RRRDDDSDDD)
Type: biochemical
MEASURED_PARAMETER: IC50

Data request: Provide the documented IC50 with human recombinant CK2 holoenzyme (Homo sapiens) as the system for CC(=O)OC1CC2(C)C(CCC(C)C23Cc2c(O)cc(C=O)c(C=O)c2O3)C(C)(C)C1OC(C)=O (stereo not shown) [Acetoxystachybotrydial acetate]
Data returned: 1860 nM

----------
Tested on: MCF7 NucLight Green cells
Test: EdU cell proliferation assay
Type: cell-based, human
Conditions: Homo sapiens, MCF7, 24 h, read-out: EC50 inhibition of cell proliferation
MEASURED_PARAMETER: EC50 (nM)
Kindly provide the numeric value in nM only, without the unit symbol.

Data request: Need EC50 of CC(=O)OC1CC2(C)C(CCC(C)C23Cc2c(O)cc(C=O)c(C=O)c2O3)C(C)(C)C1OC(C)=O (stereo not shown) [Acetoxystachybotrydial acetate] , thanks.
Data returned: 390
